Source of measurements: patent US7902354B2

List of log10 of IC50 values.
Test system: DLD-1 human colon carcinoma cells
Test: MTS cell viability assay, DLD-1 human colon carcinoma cells
Format: cell-based
Details: DLD-1, 4 h compound incubation, MTS, read-out: IC50 Values, Cancerous Cells, Colon DLD-1
A value of 2 here means IC50 of 100 in µM, since values are log10.

Some molecules with recorded log10 of IC50:
Cc1ccc(NC(=O)N2CCC3(CC2)CSC2=C(O3)c3ccccc3C(=O)C2=O)cn1 [Compound 91] :: 0.20
Cc1cccc(CN2CCC3(CC2)CSC2=C(O3)c3ccccc3C(=O)C2=O)c1 [Compound 133] :: 1.12
O=C1C(=O)c2ccccc2C2=C1SCC1(CCN(CCCOc3ccccc3)CC1)O2 [Compound 144] :: 0.34
O=C1C(=O)c2ccccc2C2=C1SCC1(CCN(C[C@@H](O)COc3ccc(F)cc3)CC1)O2 [Compound 181] :: -0.13

API: the following record is the query input.
Query: Please look at this molecule and report its log10 of IC50: O=C(O)CCC(=O)N1CCC2(CC1)CSC1=C(O2)c2ccccc2C(=O)C1=O [Compound 233]
Response: 1.81

====

Overview of recorded melting point for various compounds

O=C1C(=O)c2ccccc2C2=C1SCC1(CCN(C(=O)Cc3ccc(Cl)cc3)CC1)O2 :: 120 to 125 °C
CC(C)(C)OC(=O)N1CCC2(CC1)CSC1=C(O2)c2cc(-c3ccncc3)ccc2C(=O)C1=O :: 225 to 227 °C
COc1ccc2c(c1)C(=O)C(=O)C1=C2OC2(CCN(C[C@@H](O)COc3ccc(C(C)(C)C)cc3)CC2)CS1 :: 188 to 190 °C
O=C1C(=O)c2ccc(-c3cccnc3)cc2C2=C1SCC1(CCNCC1)O2 :: 213 to 215 °C

Query: Give reported melting point value for O=C1C(=O)c2ccccc2C2=C1SCC1(CCCCC1)O2
Response: 194 to 195 °C

Query: State its melting point for this compound: O=C1C(=O)c2ccc(Br)cc2C2=C1SCC1(CCN(C(=O)Oc3cccc(C(F)(F)F)c3)CC1)O2
Response: 210 to 211 °C

Query: Using known records, supply melting point for O=C1C(=O)c2ccc(-c3ccccc3)cc2C2=C1SCC1(CCNCC1)O2
Response: 83 to 87 °C

Query: Read off the recorded melting point for CC(C)(C)c1ccc(OC[C@H](O)CN2CCC3(CC2)CSC2=C(O3)c3cc(-c4ccccc4)ccc3C(=O)C2=O)cc1
Response: 94 to 97 °C

Query: Recall and state the measured melting point for Cl.NC1CCC2(CC1)CSC1=C(O2)c2ccccc2C(=O)C1=O (centres unmarked) .
Response: 256 to 257 °C

====

parameter: melting point

Query: Please report the measured melting point for CC(C)(C)c1ccc(OC[C@@H](O)CN2CCC3(CC2)CSC2=C(O3)c3cc(Cl)ccc3C(=O)C2=O)cc1
Response: 94 to 97 °C

Query: Read the entry COC(=O)Cc1ccc(OC[C@H](O)CN2CCC3(CC2)CSC2=C(O3)c3ccccc3C(=O)C2=O)cc1 and write its reported melting point.
Response: 122 to 124 °C

====

Collected melting point values appear next to each entry.

O=C1C(=O)c2ccccc2C2=C1SCC1(CCN(C(=O)/C=C/c3ccccc3Cl)CC1)O2 :: 110 to 115 °C

Query: Indicate the recorded melting point value for this compound: CC(C)(C)c1ccc(OC[C@@H](O)CN2CCCC3(CSC4=C(O3)c3ccccc3C(=O)C4=O)C2)cc1 (stereo partly drawn)
Response: 90 to 92 °C

Query: Input CC(C)(C)OC(=O)N1CCC(CC(=O)N2CCC3(CC2)CSC2=C(O3)c3ccccc3C(=O)C2=O)CC1 , output reported melting point.
Response: 110 to 113 °C

Query: Supply recorded melting point for COc1ccc2c(c1)C(=O)C(=O)C1=C2OC2(CCN(Cc3ccc(F)cc3)CC2)CS1 here.
Response: 219 to 221 °C
